Molecular target: His6-AspH315–758 (human aspartate/asparagine-β-hydroxylase, AspH) (Homo sapiens, UniProt Q12797)
Construct: N-Terminally His6-tagged human AspH315–758 (His6-AspH315–758) was produced in E. coli BL21 (DE3) cells; made in house; host or cells: E. coli BL21 (DE3), pET-28a(+) vector
Sequence (Q12797 315-758): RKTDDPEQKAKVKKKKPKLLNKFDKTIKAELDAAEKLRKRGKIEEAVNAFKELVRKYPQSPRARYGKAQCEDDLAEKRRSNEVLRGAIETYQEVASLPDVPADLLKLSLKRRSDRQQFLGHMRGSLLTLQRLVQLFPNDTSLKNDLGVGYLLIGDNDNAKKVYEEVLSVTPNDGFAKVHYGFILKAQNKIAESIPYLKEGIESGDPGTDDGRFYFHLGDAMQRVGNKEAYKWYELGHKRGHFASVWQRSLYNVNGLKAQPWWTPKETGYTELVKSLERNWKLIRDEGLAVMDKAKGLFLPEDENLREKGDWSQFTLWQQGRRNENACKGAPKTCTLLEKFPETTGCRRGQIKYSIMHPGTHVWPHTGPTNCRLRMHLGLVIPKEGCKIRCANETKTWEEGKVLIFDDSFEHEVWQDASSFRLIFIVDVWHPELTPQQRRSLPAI
Assay: SPE-MS AspH inhibition assay (LOPAC screen at fixed 20 μM and IC50 dose-response), hydroxylation of cyclic peptide hFX-CP101–119
Format: biochemical
measured_metric: Plate 1 (% inhibition) (%)
Answer with a number only, understood to be in %.

O=C(N[C@@H](Cc1ccccc1)C(=O)CCl)OCc1ccccc1 [Z-L-Phe chloromethyl ketone] ... 0.032
CN1C(=O)CC[C@H]1c1cccnc1 [(-)-Cotinine] ... -2.91

Record O=C1C=CC(=O)C=C1 [p-Benzoquinone, reference compound] , field Plate 1 (% inhibition): 99.30

The recorded Plate 1 (% inhibition) for CN(CC[C@@H](Oc1ccc(C(F)(F)F)cc1)c1ccccc1)CC(=O)[O-].[Li+] [Org 24598 lithium salt] is -14.64

====

Target: His6-AspH315–758 (human aspartate/asparagine-β-hydroxylase, AspH) (Homo sapiens)
Construct: N-Terminally His6-tagged human AspH315–758 (His6-AspH315–758) was produced in E. coli BL21 (DE3) cells; made in house; host or cells: E. coli BL21 (DE3), pET-28a(+) vector
Sequence (Q12797 315-758): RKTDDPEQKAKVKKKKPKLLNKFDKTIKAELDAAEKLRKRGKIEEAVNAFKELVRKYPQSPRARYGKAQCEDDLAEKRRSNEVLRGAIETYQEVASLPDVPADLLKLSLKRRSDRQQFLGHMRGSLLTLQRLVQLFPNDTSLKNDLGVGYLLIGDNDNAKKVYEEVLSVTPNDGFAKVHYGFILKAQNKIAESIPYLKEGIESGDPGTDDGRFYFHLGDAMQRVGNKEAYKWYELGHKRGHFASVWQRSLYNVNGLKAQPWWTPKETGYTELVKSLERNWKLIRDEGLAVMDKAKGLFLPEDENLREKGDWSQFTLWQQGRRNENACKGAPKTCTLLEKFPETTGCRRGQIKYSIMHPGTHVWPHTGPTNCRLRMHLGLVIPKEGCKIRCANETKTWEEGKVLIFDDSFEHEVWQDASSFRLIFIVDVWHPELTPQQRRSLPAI
Experiment: SPE-MS AspH inhibition assay (LOPAC screen at fixed 20 μM and IC50 dose-response), hydroxylation of cyclic peptide hFX-CP101–119
Type: biochemical
Settings: LOPAC compound at fixed 20 uM; plate 1, normalised to DMSO and 2,4-PDCA controls
Where a name gives a salt, the structure may show the parent alone.
measured_metric: Plate 1 (% inhibition) (%)
Give the value, in units of %, as a plain number.

Please review the entries below; each comes with its answer.
COC(=O)C1=C(C)NC(C)=C([N+](=O)[O-])C1c1ccccc1C(F)(F)F (racemic) [(±)-Bay K 8644] ... -22.02
CCCCS(=N)(=O)CC[C@H](N)C(=O)O (stereo partly drawn) [L-Buthionine-sulfoximine] ... 3.50
Br.Br.N=C(N)SCCN ... -13.77
O=C(O)c1cc(O)cc(C(=O)O)n1 [Chelidamic acid] ... 48.94
Cn1c(=O)c2c(ncn2C)n(C)c1=O [Caffeine] ... -5.72

Form: compound = CC(C)NCC(O)COc1ccc(CCOCC2CC2)cc1 (stereo not drawn) [Betaxolol hydrochloride] ; Plate 1 (% inhibition) = -3.28

Please fill in: Plate 1 (% inhibition) reported for Clc1ccccc1C(c1ccccc1)(c1ccccc1)n1ccnc1 [Clotrimazole] = -28.43

Entry Nc1ccc(CCNc2ncnc3c2ncn3[C@@H]2O[C@H](CO)[C@@H](O)[C@H]2O)cc1 [N6-2-(4-Aminophenyl)ethyladenosine] — recorded Plate 1 (% inhibition) = -0.97

The compound identified as Cc1cc(Cl)ccc1OCCCC(=O)NO [Droxinostat] registered its Plate 1 (% inhibition) at 1.86

So for O=c1ccc2c(OCCCCc3ccccc3)c3ccoc3cc2o1 [Psora-4] , the logged Plate 1 (% inhibition) turned out to be 4.97

GET /value?item= CN(C)CCCN1c2ccccc2CCc2ccc(Cl)cc21 [Clomipramine hydrochloride] &field=Plate 1 (% inhibition) returns -22.34

Input OC(CCN1CCCCC1)(c1ccccc1)C1CC2C=CC1C2 (stereo not drawn) [Biperiden hydrochloride] . Output Plate 1 (% inhibition): -10.34

The compound listed as Cn1c(=O)c2[nH]cnc2n(C)c1=O.Cn1c(=O)c2[nH]cnc2n(C)c1=O.NCCN [Aminophylline ethylenediamine] shows Plate 1 (% inhibition) equal to -9.00

The compound identified as Nc1nc(OCc2ccccc2)c2nc[nH]c2n1 [O6-benzylguanine] registered its Plate 1 (% inhibition) at -1.55
